Origin of values: the supplement of paper PMC10567573

B1: GAGE1 (parent)
chain: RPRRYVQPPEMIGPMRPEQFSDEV

# Variants of: B1
# PROTOCOL_NOTES: protein stability index of a GFP-peptide fusion (GPS, HEK-293T) (PSI 1-6); higher = more stable;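 also: lentivirally expressed fusions sorted by FACS into six bins by GFP to DsRed ratio, PSI derived from sequencing read proportions per bin multiplied by bin number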
# PARTICULARS: c terminus: a fixed tail appended
Classification field: enter satisfied for protein stability index values not below 4, not satisfied for values below it.

>>> cat("I12M")
"satisfied"
>>> cat("P2Q")
"not satisfied"
>>> cat("D22C")
"not satisfied"
>>> cat("E10D")
"satisfied"
>>> cat("Y5Q")
"satisfied"
>>> cat("G13M")
"satisfied"
>>> cat("P8G")
"satisfied"
>>> cat("I12Q")
"satisfied"
>>> cat("F20S")
"satisfied"
